# System: NIH3T3
# experiment.notes: qHTS assay to identify novel small-molecules to repurpose for Merkel cell carcinoma treatment (AID 1296009); also: nearly all actives have a fitted effect of over 60% in size
# measurement.setup: MCC and control cell lines, CellTiter-Glo viability, 72 h; at 44.8 µM (top of the series) unless noted
Inconclusive results are not listed. Calls of active or inactive are those of the source. Calls follow the shape of the dose curve; as a rule, active = well fitted inhibition curve with a large enough effect; inconclusive = small, poorly fitted or top-dose-only effect; inactive = flat fitted curve, though single readings scatter.

compound | system.under.test | outcome
CC(=O)O[C@@H](C[C@@H]1C=C(C)C(=O)O1)[C@H](C)[C@H]1CCC2[C@@]3(C)CC[C@H](O[C@@H]4O[C@H](CO)[C@@H](O)[C@H](O)[C@H]4O[C@@H]4O[C@@H](C)[C@H](O)[C@@H](O)[C@H]4O)C(C)(C)C3CC[C@@]2(C)[C@@]12COC(=O)C2 (some centres undefined) | NIH3T3 | inactive [at 9.27 µM]
COc1cc(C)c(C(=O)NC2C(C)OC(OC3CCC(C)C4C3C=C(C)C3/C(C)=C\CC/C(C)=C/C5(C)C=C(C(=O)O)C(C)CC56OC(=O)/C(=C(\O)C34C)C6=O)C(O)C2(C)O)c(O)c1 (centres undefined) | NIH3T3 | inactive [at 9.27 µM]

----------
# Tested on: Zika virus NS2B-NS3 protease (linked construct)
# experiment.notes: Primary screen NINDS Rhodamine qHTS for Zika virus inhibitors (AID 1347160); also: nearly all actives have a fitted effect of over 55% in size
# measurement.setup: purified NS2B-NS3 protease, Rhodamine110 substrate fluorescence; series mostly up to 33.1 µM
Inconclusive results are not listed. Activity calls are given as the source filed them. The call rests on the fitted dose curve; in most records, active means well fitted inhibition curve with a large enough effect; inconclusive means small, poorly fitted or top-dose-only effect; inactive means no such curve, though single readings can be large or run the other way.
// one of active, inactive, no free text

Use these answered entries as a reference point.
molecule | class.name
COC(=O)C(CC1(O)c2ccccc2N2C(=O)C(CC(C)C)NC21)n1cnc2ccccc2c1=O (stereo not given) | inactive
CC12CC34CC(O)C5C(CO)(CO)CC(=O)CC5(C)C3CC1C2C4 (stereo not given) | inactive
O=C(O)Cc1cn([C@@H]2OC[C@@H](O[C@@H]3O[C@H](CO)[C@@H](O)[C@H](O)[C@H]3O)[C@H](O)[C@H]2O[C@@H]2O[C@H](CO)[C@@H](O)[C@H](O)[C@H]2O)c2ccccc12 | inactive
C=CC(C)(CC/C=C(\C)C(=O)OC[C@H]1O[C@@H](OC(C)(C=C)CC/C=C(\C)C(=O)O[C@H]2[C@H](O)[C@@H](O)[C@H](OC(C)(C=C)CC/C=C(\C)C(=O)O)O[C@@H]2CO)[C@H](O)[C@@H](O)[C@@H]1O)O[C@@H]1O[C@H](CO)[C@@H](O)[C@H](O)[C@H]1O (stereo not given in full) | inactive
O=C(Cn1c2ccccc2c2nc3n(c(=O)c21)CCS3)N1CCCC1 | inactive
CC1=C(CO)CC(C(C)C2CCC3C4CC=C5CC(OC6OC(COC7OC(CO)C(O)C(O)C7O)C(O)C(O)C6O)CC(O)C5(C)C4CCC23C)OC1=O (stereo not given) | inactive

Incoming: Called result for C/C=C1/CC2C(=O)Nc3cc(O)c(OC)cc3C(=O)N2C1 (stereo not given)
Outgoing: inactive

Incoming: Called result for CC(=O)/C=C/[C@H]1[C@](C)(O)[C@@H](O)[C@H](O)C2C(C)(C)CCC[C@@]21C (stereo not given in full)
Outgoing: inactive

Incoming: Called result for C[C@@H]1O[C@@H](O[C@H]2[C@@H]3C=CO[C@@H](O[C@@H]4O[C@H](CO)[C@@H](O)[C@H](O)[C@H]4O)[C@@H]3[C@@]3(CO)O[C@@H]23)[C@H](OC(=O)/C=C/c2ccc(O)cc2)[C@H](O)[C@H]1O
Outgoing: inactive

Incoming: Called result for C=C1CCC2C(C)(C(=O)O)CCCC2(C)C1CC/C(C)=C\CO (stereo not given)
Outgoing: inactive

Incoming: Called result for CC1CCCCCCCc2cc(O)cc(O)c2C(=O)O1 (stereo not given)
Outgoing: active

Incoming: Called result for Cc1cn(-c2cc(NC(=O)c3ccc(C)c(Nc4nccc(-c5cnccn5)n4)c3)cc(C(F)(F)F)c2)cn1
Outgoing: inactive

Incoming: Called result for CC(=O)O[C@H]1C[C@@H](O)C(C)(C)C2C[C@@H](OC(C)=O)[C@]3(C)C(CC[C@@]4(C)[C@H](c5ccoc5)OC(=O)[C@H]5O[C@]543)[C@]21C (stereo not given in full)
Outgoing: inactive

Incoming: Called result for COc1cc(Nc2nc3c(s2)CCCC3c2ccccc2)ccc1-n1cnc(C)c1 (stereo not given)
Outgoing: inactive

Incoming: Called result for CCC1OC(=O)C(C)CC(C)C(=O)/C(C)=C/C(C)C(=O)/C=C/C1(C)O (stereo not given)
Outgoing: inactive
